TESTED ON: T1, Human soluble IL6-R (human, UniProt P08887 20-358)
T1 construct: Bought soluble receptor; biotinylated in some Alphascreen assays; also called sIL6-R; hIL-6R
T1 sequence (looked up): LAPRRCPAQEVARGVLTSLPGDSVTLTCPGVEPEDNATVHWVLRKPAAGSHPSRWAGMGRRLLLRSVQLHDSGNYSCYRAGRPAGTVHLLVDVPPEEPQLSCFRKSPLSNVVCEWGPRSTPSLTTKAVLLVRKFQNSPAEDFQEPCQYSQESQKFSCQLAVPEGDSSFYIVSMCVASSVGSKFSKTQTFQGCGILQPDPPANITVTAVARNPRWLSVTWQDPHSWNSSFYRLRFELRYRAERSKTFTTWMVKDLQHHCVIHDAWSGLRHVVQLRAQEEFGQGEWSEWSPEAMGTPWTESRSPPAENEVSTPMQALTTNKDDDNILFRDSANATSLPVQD
PROCEDURE DETAILS: SPR (Biacore 3000), IL6-R on CM5 chip
VALUE TYPE: kon (M⁻¹ s⁻¹)

INSERT INTO results (binder, value_type, quantitative_result) VALUES
  ('IL6R03 (VHH, also called PMP31A4; PMP 31 A4) VHH: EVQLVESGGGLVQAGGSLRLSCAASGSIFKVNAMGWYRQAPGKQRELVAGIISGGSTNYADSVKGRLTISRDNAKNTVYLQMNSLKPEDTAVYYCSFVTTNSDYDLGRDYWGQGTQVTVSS', 'kon', 484000),
  ('IL6R08 (VHH, also called PMP34A12; PMP 34 A12) VHH: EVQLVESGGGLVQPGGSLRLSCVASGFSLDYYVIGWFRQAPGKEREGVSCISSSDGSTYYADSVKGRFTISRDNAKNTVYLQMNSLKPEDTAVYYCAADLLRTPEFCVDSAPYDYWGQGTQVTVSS', 'kon', 194000);

(A) IL6R10 (VHH, also called PMP35C10; PMP 35 C10) VHH: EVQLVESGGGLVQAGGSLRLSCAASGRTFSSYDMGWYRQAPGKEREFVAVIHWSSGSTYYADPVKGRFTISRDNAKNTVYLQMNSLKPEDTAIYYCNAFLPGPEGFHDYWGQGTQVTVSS
(B) IL6R05 (VHH, also called PMP32E10; PMP 32 E10) VHH: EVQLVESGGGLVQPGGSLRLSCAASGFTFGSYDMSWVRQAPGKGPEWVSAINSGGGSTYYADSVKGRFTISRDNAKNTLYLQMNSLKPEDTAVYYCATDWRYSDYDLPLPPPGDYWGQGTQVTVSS
(C) IL6R02 (VHH, also called PMP30C11; PMP 30 C11) VHH: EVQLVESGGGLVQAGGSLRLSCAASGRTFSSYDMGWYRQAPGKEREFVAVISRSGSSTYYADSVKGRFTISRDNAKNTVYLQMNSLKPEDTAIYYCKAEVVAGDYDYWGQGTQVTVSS
(D) IL6R01 (VHH, also called PMP28E11; PMP 28 E11) VHH: EVQLVESGGGFVQAGGSLRLSCIASGDNFSINRMGWYRQALGKQRELVAIITNHGSTNYADAVKGRFTISRDYAKNTVYLQMNGLKPDDTAVYYCNAYISEVGTWRDDYWGQGIQVTVSS
# desc sort on kon across 4 binders Please list the labels in the order you were asked to rank them. C, A, D, B
